Task for the reader: assign each of the following compounds its reported Rape plant response rating.
# System: rape
# experimentSummary: Test B pre/postemergence rape
# Type: in vivo, Brassica napus
# runParameters: Rate 125 g/ha, Postemergence; scale 0 to 10
// return just the number, without any unit appended

For rape, provide Rape plant response rating of `Cc1ccccc1N(C(=O)n1oc(=O)n(-c2ccccc2C)c1=O)C(C)C` please.
0

Notebook: pull reported Rape plant response rating for rape, entry `CC(=O)OCCCCn1c(=O)on(C(=O)N(c2ccc(F)cc2)C(C)C)c1=O`
2

Identify the measured Rape plant response rating of `CCc1ccc(N(C(=O)n2oc(=O)n(-c3ccccc3C)c2=O)C(C)C)cc1` for rape.
0

Request: Rape plant response rating, test system rape, entry `CON=C(Cn1c(=O)on(C(=O)N(c2ccc(F)cc2)C(C)C)c1=O)C(F)(F)F`
0

###

Answer each item with its documented Bedstraw plant response rating.
# System: bedstraw
# experimentSummary: Test B pre/postemergence bedstraw
# Format: in vivo, Galium aparine
# runParameters: Rate 62 g/ha, Postemergence; scale 0 to 10 (0 no effect, 10 complete control)
Lab note: jot down the number only; don't add units.

Field request: Bedstraw plant response rating | item: `COCn1c(=O)on(C(=O)N(c2ccc(F)cc2)C(C)C)c1=O`
0

// returns reported Bedstraw plant response rating for input `CC(C)N(C(=O)n1oc(=O)n(C[Si](C)(C)C)c1=O)c1ccc(F)cc1`
3

May I ask what Bedstraw plant response rating has been recorded for `CC(C)C(=O)Cn1c(=O)on(C(=O)N(c2ccccc2)C(C)C)c1=O` ?
0

Would you kindly share the measured Bedstraw plant response rating for `CC(C)N(C(=O)n1oc(=O)n(C2CCCC2)c1=O)c1ccccc1` ?
0

Give its Bedstraw plant response rating value. Item: `CC(C)N(C(=O)n1oc(=O)n(Cc2nnsc2Cl)c1=O)c1ccccc1`
0

###

Kindly state Rape plant response rating for each of the entries shown.
# Test system: rape
# experimentSummary: Test B pre/postemergence rape
# Format: in vivo, Brassica napus
# runParameters: Preemergence, Rate 125 g/ha; scale of 0 to 10 where 0 is no effect and 10 is complete control
Answer with the value's number alone.

Please report the recorded Rape plant response rating for `C=C(Cn1c(=O)on(C(=O)N(c2ccccc2)C(C)C)c1=O)c1ccc(F)cc1` .
0

Entry COC(=O)C(C)n1c(=O)on(C(=O)N(c2ccc(Cl)cc2)C(C)C)c1=O (centres unmarked) : reported Rape plant response rating = ?
0

Endpoint output: Rape plant response rating of `CC(C)N(C(=O)n1oc(=O)n(CCF)c1=O)c1ccc(Cl)cc1` . Value?
5

Record request: Rape plant response rating value, item COC(C)n1c(=O)on(C(=O)N(c2ccc(Cl)cc2)C(C)C)c1=O (centres unmarked)
0

Value lookup for Rape plant response rating; key = `CC(C)N(C(=O)n1oc(=O)n(CC(=O)C(F)(F)F)c1=O)c1ccc(F)cc1F`
0

###

# System: blackgrass
# experimentSummary: Test B pre/postemergence blackgrass
# Type: in vivo, Alopecurus myosuroides
# runParameters: Rate 62 g/ha, Postemergence; scale 0 to 10 (0 no effect, 10 complete control)
Give measured Blackgrass plant response rating for each item. Keep answers brief.

Which Blackgrass plant response rating value is on record for C=CC(CC)n1c(=O)on(C(=O)N(c2ccccc2)C(C)C)c1=O (centres unmarked) ?
6

What value of Blackgrass plant response rating has been recorded for this entry: `CC(C)N(C(=O)n1oc(=O)n(CCS(C)(=O)=O)c1=O)c1ccc(F)cc1`
0

Endpoint output: Blackgrass plant response rating of `CSCCn1c(=O)on(C(=O)N(c2ccc(F)cc2)C(C)C)c1=O` . Value?
2

Field request: Blackgrass plant response rating | item: COC(C)n1c(=O)on(C(=O)N(c2ccccc2)C(C)C)c1=O (centres unmarked)
0

Name the recorded Blackgrass plant response rating for `CCOCn1c(=O)on(C(=O)N(c2ccc(F)cc2)C(C)C)c1=O` .
2

Look up Blackgrass plant response rating: `CC(C)N(C(=O)n1oc(=O)n(C[Si](C)(C)C)c1=O)c1ccc(F)cc1`
0

I am curious: what Blackgrass plant response rating value has been reported for `Cc1ccccc1-n1c(=O)on(C(=O)N(c2ccc3c(c2)CCC3)C(C)C)c1=O` ?
0

Field request: Blackgrass plant response rating | item: `CCN(C(=O)n1oc(=O)n(Cc2ccco2)c1=O)C1CCCCC1`
0

###

# Tested on: cocklebur
# experimentSummary: Test B pre/postemergence cocklebur
# Assay type: in vivo, Xanthium strumarium
# runParameters: Rate 125 g/ha, Postemergence; scale of 0 to 10 where 0 is no effect and 10 is complete control
measuredParameter: Cocklebur plant response rating
Please respond with just the number, no unit label.

I would be grateful if you could share the reported Cocklebur plant response rating for `CC(C)N(C(=O)n1oc(=O)n(C2CCCC2)c1=O)c1ccccc1` .
2

Form field: reported Cocklebur plant response rating of `CC(C)N(C(=O)n1oc(=O)n(-c2ccsc2)c1=O)c1ccc(F)cc1`
0

May I ask what Cocklebur plant response rating has been recorded for `CCN(C(=O)n1oc(=O)n(Cc2ccco2)c1=O)C1CCCCC1` ?
0

For the molecule `CC(C)N(C(=O)n1oc(=O)n(C[Si](C)(C)C)c1=O)c1ccc(F)cc1` , what Cocklebur plant response rating is on record?
0

Return reported Cocklebur plant response rating; argument: `CCOCn1c(=O)on(C(=O)N(c2ccc(F)cc2)C(C)C)c1=O`
0

###

Would you mind telling me the reported I. Ryegrass plant response rating (0 to 100 scale) of each entry?
# Test system: Italian ryegrass
# experimentSummary: Test E Italian ryegrass
# Assay type: in vivo, Lolium multiflorum
# runParameters: Preemergence, Rate 250 g/ha

// map `CC(C)N(C(=O)n1oc(=O)n(CC(C)(C)C)c1=O)c1ccc(F)cc1` to recorded I. Ryegrass plant response rating (0 to 100 scale) (system: Italian ryegrass)
80

Find the measured I. Ryegrass plant response rating (0 to 100 scale): item `COCn1c(=O)on(C(=O)N(c2ccc(F)cc2)C(C)C)c1=O` , target or system Italian ryegrass.
50

# value lookup — system Italian ryegrass, readout I. Ryegrass plant response rating (0 to 100 scale), item `CC(C)N(C(=O)n1oc(=O)n([C@@H](C)c2ccccc2)c1=O)c1ccc(F)cc1`
30

###

# Tested on: wheat
# experimentSummary: Test B pre/postemergence wheat
# Format: in vivo, Triticum aestivum
# runParameters: Rate 1000 g/ha, Preemergence; scale 0 to 10 (0 no effect, 10 complete control)
measuredParameter: Plant response rating, Wheat
Respond numerically, and do not add a unit to the figure.

Any idea what Plant response rating, Wheat was measured for CCOP(=O)(OCC)C(C)n1c(=O)on(C(=O)N(c2ccc(F)cc2)C(C)C)c1=O (stereo not shown) ?
2

Which Plant response rating, Wheat is listed for COC(=O)C(C)n1c(=O)on(C(=O)N(c2ccc(F)cc2)C(C)C)c1=O (stereo not shown) ?
0

Sample `CC(C)N(C(=O)n1oc(=O)n(-c2ccc(Cl)cc2Cl)c1=O)c1ccc(F)cc1` — what was its Plant response rating, Wheat?
0

Param item = `CCN(CC)C(=O)n1oc(=O)n(-c2c(C)cccc2C)c1=O` ; retrieve measured Plant response rating, Wheat.
0

###

# Test system: winter wheat
# experimentSummary: Test E winter wheat
# Type: in vivo, Triticum aestivum
# runParameters: Preemergence, Rate 250 g/ha
measuredParameter: Wheat (winter) plant response rating (0 to 100 scale)
Respond numerically, and do not add a unit to the figure.

Hi! What's the reported Wheat (winter) plant response rating (0 to 100 scale) for CC(C)N(C(=O)n1oc(=O)n(CC(C)(C)C)c1=O)c1ccc(F)cc1 [Compound 246] on winter wheat?
50

Provide value of Wheat (winter) plant response rating (0 to 100 scale) for this record tested with winter wheat: Cc1cccc(C)c1-n1c(=O)on(C(=O)N(C(C)C)C2C=CCCC2)c1=O (stereo not drawn) [Compound 273]
50

Lab request: please report Wheat (winter) plant response rating (0 to 100 scale) under test system winter wheat for CC(C)N(C(=O)n1oc(=O)n([C@@H](C)c2ccccc2)c1=O)c1ccc(Cl)cc1 [Compound 174]
60

Given the entry CC(=O)OCCCCn1c(=O)on(C(=O)N(c2ccc(F)cc2)C(C)C)c1=O [Compound 211] , what Wheat (winter) plant response rating (0 to 100 scale) was observed with winter wheat?
35

Look up Wheat (winter) plant response rating (0 to 100 scale) with winter wheat for this compound: CC(C)N(C(=O)n1oc(=O)n([C@H](C)c2ccccc2)c1=O)c1ccc(F)cc1F [Compound 238]
40

Tell me reported Wheat (winter) plant response rating (0 to 100 scale) for CCCCCn1c(=O)on(C(=O)N(c2ccc(F)cc2)C(C)C)c1=O [Compound 290] , tested with winter wheat.
10

###

Can you tell me Crabgrass plant response rating for the items I'm about to list?
# Tested on: crabgrass
# experimentSummary: Test B pre/postemergence crabgrass
# Format: in vivo, Digitaria sanguinalis
# runParameters: Preemergence, Rate 500 g/ha; scale of 0 to 10 where 0 is no effect and 10 is complete control
Write the number on its own, no unit after it.

For the compound CCOc1nc(C(F)(F)F)c(Cn2c(=O)on(C(=O)N(c3ccc(F)cc3)C(C)C)c2=O)s1 [Compound 381] , what Crabgrass plant response rating is on record?
9

Give the measured Crabgrass plant response rating of Cc1ccccc1-n1c(=O)on(C(=O)N(c2ccc(Cl)cc2)C(C)C2CC2)c1=O (stereo not shown) [Compound 330] .
0

Give its Crabgrass plant response rating value. Item: CCC=CCn1c(=O)on(C(=O)N(c2ccc(Cl)cc2)C(C)C)c1=O [Compound 552]
10

What value of measured Crabgrass plant response rating is listed for CC(C)N(C(=O)n1oc(=O)n(CCC(F)=C(F)F)c1=O)c1ccccc1 [Compound 566] ?
10
